Hey, just so you know, these numbers are from ChEMBL document CHEMBL1147204.

System: Priestia megaterium
Protocol: Antimicrobial activity against Bacillus megaterium by agar diffusion technique
Format: functional
Would you please tag the item Yes when its inhibition zone (IZ) is 40 mm or above, and No when it is below?

Does inhibition zone (IZ) meet or surpass 40 mm for Cc1nc(N/N=C/C2=C(Cl)c3ccccc3CC2)sc1/N=N/c1ccccc1 ?
Yes

Does inhibition zone (IZ) meet or surpass 40 mm for O=C1/C(=C\c2ccc(Cl)cc2)S/C(=N\N=C\C2=C(Cl)c3ccccc3CC2)N1c1ccccc1 ?
Yes

Does inhibition zone (IZ) meet or surpass 40 mm for O=C1N=C(N/N=C/C2=C(Cl)c3ccccc3CC2)S/C1=C/c1ccc(Cl)cc1 ?
No

Does inhibition zone (IZ) meet or surpass 40 mm for ClC1=C(/C=N/Nc2nc(-c3ccccc3)cs2)CCc2ccccc21 ?
Yes

Does inhibition zone (IZ) meet or surpass 40 mm for COc1ccc(/N=N/c2sc(N/N=C/C3=C(Cl)c4ccccc4CC3)nc2-c2ccccc2)cc1 ?
Yes

Does inhibition zone (IZ) meet or surpass 40 mm for O=C1CS/C(=N\N=C\C2=C(Cl)c3ccccc3CC2)N1c1ccccc1 ?
Yes

Does inhibition zone (IZ) meet or surpass 40 mm for O=c1c2c(ncn1/N=C/C1=C(Cl)c3ccccc3CC1)sc(=S)n2-c1ccccc1 ?
Yes

Does inhibition zone (IZ) meet or surpass 40 mm for Cc1csc(N/N=C/C2=C(Cl)c3ccccc3CC2)n1 ?
Yes

Does inhibition zone (IZ) meet or surpass 40 mm for CCOC(=O)C1SC(N/N=C/C2=C(Cl)c3ccccc3CC2)=NC1=O (stereo not given) ?
No
